# EC50 per record follows
# Tested on: wild-type HIV-1 IIIB strain
# Measurement Notes: Antiviral activity in MT4 LTR-EGFP cellular assay
# Format: cell-based
# Conditions: Human immunodeficiency virus 1, 72 h; wild-type HIV-1 IIIB, MT4 LTR-EGFP cells, three days after infection; pEC50 = -log10(EC50); read-out: Antiviral Activity IIIB pEC50 (converted)
Experimental Endpoint: EC50 (µM)

INSERT INTO results (molecule, experimental_endpoint, rel, measured_result) VALUES
  ('CC(C)(C)CN(C[C@@H](O)[C@H](Cc1ccccc1)NC(=O)OCc1cncs1)C(=O)c1ccncc1 [Compound C22]', 'EC50', '>', 100),
  ('CC(C)CN(C[C@@H](O)[C@H](Cc1ccccc1)NC(=O)OCc1cncs1)C(=O)c1ccc(F)cc1 [Compound C6]', 'EC50', '=', 79.4),
  ('CC(C)CN(C[C@@H](O)[C@H](Cc1ccccc1)NC(=O)OCc1cncs1)C(=O)CCc1cncs1 [Compound C24]', 'EC50', '=', 97.7),
  ('CC(C)CN(C[C@@H](O)[C@H](Cc1ccccc1)NC(=O)OCc1cncs1)C(=O)C1CCC(F)(F)CC1 [Compound C23]', 'EC50', '=', 51.3),
  ('CC(C)CN(C[C@@H](O)[C@H](Cc1ccccc1)NC(=O)OCc1cncs1)C(=O)c1ccccn1 [Compound C9]', 'EC50', '>', 100),
  ('CC(C)CN(C[C@@H](O)[C@H](Cc1ccccc1)NC(=O)OCc1cncs1)C(=O)OCc1cncs1 [Compound C25]', 'EC50', '=', 69.2),
  ('CC(C)CN(C[C@@H](O)[C@H](Cc1ccccc1)NC(=O)OCc1cncs1)C(=O)c1ccc2occc2c1 [Compound C2]', 'EC50', '=', 44.7);

----------
# Study Target: CYP3A4 (Homo sapiens, UniProt P08684)
# Construct: host or cells: E. coli
# Sequence (P08684 whole entry): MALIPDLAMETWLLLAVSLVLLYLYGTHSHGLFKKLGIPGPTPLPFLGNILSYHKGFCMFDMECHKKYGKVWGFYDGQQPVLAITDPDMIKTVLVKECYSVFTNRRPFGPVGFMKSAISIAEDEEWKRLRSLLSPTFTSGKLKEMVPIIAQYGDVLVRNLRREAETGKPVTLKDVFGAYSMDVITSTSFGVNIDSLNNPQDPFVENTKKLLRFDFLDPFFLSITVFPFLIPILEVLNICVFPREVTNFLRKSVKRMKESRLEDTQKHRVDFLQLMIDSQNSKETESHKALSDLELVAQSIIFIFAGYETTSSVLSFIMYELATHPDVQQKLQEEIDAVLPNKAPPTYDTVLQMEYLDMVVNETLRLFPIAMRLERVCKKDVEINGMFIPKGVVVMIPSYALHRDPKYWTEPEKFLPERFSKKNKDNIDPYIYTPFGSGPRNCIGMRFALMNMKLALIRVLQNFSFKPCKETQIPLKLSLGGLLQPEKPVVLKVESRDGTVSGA
# Measurement Notes: CYP450 inhibition, fluorescent substrate assay, CYP3A4
# Format: biochemical
# Conditions: pH 7.4, 10 μM test compound, substrate BQ 60 μM, 30 min, read-out: 3A4-BQ % inh.
Experimental Endpoint: inhibition at 30 min, 10 μM (%)

INSERT INTO measurements (compound, experimental_endpoint, measured_result) VALUES
  ('CC(C)CN(C[C@@H](O)[C@H](Cc1ccccc1)NC(=O)OCc1cncs1)C(=O)c1ccco1 [Compound C21]', 'inhibition at 30 min, 10 μM', 81);

----------
Quick reference for EC50 among some compounds
# System: wild-type HIV-1 IIIB strain
# Measurement Notes: Antiviral activity in MT4 LTR-EGFP cellular assay
# Format: cell-based
# Conditions: Human immunodeficiency virus 1, 72 h; wild-type HIV-1 IIIB, MT4 LTR-EGFP cells, three days after infection; pEC50 = -log10(EC50); read-out: Antiviral Activity IIIB pEC50 (converted)
Experimental Endpoint: EC50 (µM)

INSERT INTO measurements (chemical_structure, study_target, rel, measured_result) VALUES
  ('COc1cccc(C(=O)N(CC(C)C)C[C@@H](O)[C@H](Cc2ccccc2)NC(=O)OCc2cncs2)c1', 'wild-type HIV-1 IIIB strain', '=', 83.2),
  ('CC(C)CN(C[C@@H](O)[C@H](Cc1ccccc1)NC(=O)OCc1cncs1)C(=O)c1ccc(C(F)(F)F)cc1', 'wild-type HIV-1 IIIB strain', '=', 31.6),
  ('COc1ccc(C(=O)N(CC(C)C)C[C@@H](O)[C@H](Cc2ccccc2)NC(=O)OCc2cncs2)cc1', 'wild-type HIV-1 IIIB strain', '=', 85.1),
  ('CC(C)CN(C[C@@H](O)[C@H](Cc1ccccc1)NC(=O)OCc1cncs1)C(=O)c1cccnc1', 'wild-type HIV-1 IIIB strain', '>', 100),
  ('CC(C)CN(C[C@@H](O)[C@H](Cc1ccccc1)NC(=O)OCc1cncs1)C(=O)c1cnc2ccccc2n1', 'wild-type HIV-1 IIIB strain', '=', 60.3),
  ('CC(C)CN(C[C@@H](O)[C@H](Cc1ccccc1)NC(=O)OCc1cncs1)C(=O)c1ccc[nH]1', 'wild-type HIV-1 IIIB strain', '=', 79.4),
  ('Cc1cccc(C(=O)N(CC(C)C)C[C@@H](O)[C@H](Cc2ccccc2)NC(=O)OCc2cncs2)c1', 'wild-type HIV-1 IIIB strain', '>', 100);

----------
# Study Target: CYP1A2 (Homo sapiens, UniProt P05177)
# Construct: host or cells: E. coli
# Sequence (P05177 whole entry): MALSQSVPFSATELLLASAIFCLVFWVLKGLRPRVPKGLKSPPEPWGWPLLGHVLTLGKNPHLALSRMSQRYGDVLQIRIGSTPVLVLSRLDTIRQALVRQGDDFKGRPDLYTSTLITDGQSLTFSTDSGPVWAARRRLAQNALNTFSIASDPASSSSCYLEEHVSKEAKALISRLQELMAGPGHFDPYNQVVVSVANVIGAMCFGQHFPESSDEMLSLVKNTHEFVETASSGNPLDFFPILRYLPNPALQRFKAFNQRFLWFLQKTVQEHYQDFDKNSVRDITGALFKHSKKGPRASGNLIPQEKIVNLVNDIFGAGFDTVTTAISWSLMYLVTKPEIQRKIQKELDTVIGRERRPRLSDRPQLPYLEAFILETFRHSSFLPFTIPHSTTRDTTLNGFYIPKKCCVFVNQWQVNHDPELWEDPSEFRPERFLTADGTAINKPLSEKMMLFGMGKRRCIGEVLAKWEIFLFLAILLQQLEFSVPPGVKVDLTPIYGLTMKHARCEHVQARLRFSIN
# Measurement Notes: CYP450 inhibition, fluorescent substrate assay, CYP1A2
# Type: biochemical
# Conditions: E. coli expressed CYP1A2, pH 7.4, probe CEC (5 μM), 10 μM test compound, substrate CEC 5 μM, read-out: 1A2-CEC % inh.
compounds and their reported inhibition at 15 min, 10 μM
Experimental Endpoint: inhibition at 15 min, 10 μM (%)

INSERT INTO measurements (chemical_structure, unit_label, measured_result) VALUES
  ('CC(C)CN(C[C@@H](O)[C@H](Cc1ccccc1)NC(=O)OCc1cncs1)C(=O)c1cccnc1', '%', 8),
  ('CC(C)CN(C[C@@H](O)[C@H](Cc1ccccc1)NC(=O)OCc1cccnc1)C(=O)c1ccncc1', '%', 6),
  ('CC(C)(O)CN(C[C@@H](O)[C@H](Cc1ccccc1)NC(=O)OCc1cncs1)C(=O)c1ccncc1', '%', 0),
  ('CC(C)CN(C[C@@H](O)[C@H](Cc1ccccc1)NC(=O)OCc1cncs1)C(=O)c1ccccn1', '%', 4);

----------
# Study Target: UniProt P11712
# Sequence (P11712 whole entry): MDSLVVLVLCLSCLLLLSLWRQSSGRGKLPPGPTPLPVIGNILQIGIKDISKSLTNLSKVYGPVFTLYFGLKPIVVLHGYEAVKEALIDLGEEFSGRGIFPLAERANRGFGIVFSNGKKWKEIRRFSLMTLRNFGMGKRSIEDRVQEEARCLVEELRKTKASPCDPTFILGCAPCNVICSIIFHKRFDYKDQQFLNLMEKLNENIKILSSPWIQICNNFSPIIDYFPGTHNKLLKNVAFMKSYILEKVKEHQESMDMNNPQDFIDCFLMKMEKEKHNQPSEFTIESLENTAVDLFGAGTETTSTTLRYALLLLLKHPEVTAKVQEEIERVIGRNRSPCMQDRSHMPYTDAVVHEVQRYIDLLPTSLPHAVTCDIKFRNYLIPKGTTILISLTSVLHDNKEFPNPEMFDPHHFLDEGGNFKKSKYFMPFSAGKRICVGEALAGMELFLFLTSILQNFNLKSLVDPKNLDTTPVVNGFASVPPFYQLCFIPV
# Measurement Notes: CYP450 inhibition, fluorescent substrate assay, CYP2C9
# Format: biochemical
# Conditions: pH 7.4
Experimental Endpoint: inhibition at 30 min, 10 μM (%)

INSERT INTO results (chemical_structure, measured_result) VALUES
  ('CC(C)CN(C[C@@H](O)[C@H](Cc1ccccc1)NC(=O)OCc1cncs1)C(=O)c1cccnc1', 95),
  ('CC(C)CN(C[C@@H](O)[C@H](Cc1ccccc1)NC(=O)OCc1cncs1)C(=O)c1cccc(F)c1', 93),
  ('COc1cccc(C(=O)N(CC(C)C)C[C@@H](O)[C@H](Cc2ccccc2)NC(=O)OCc2cncs2)c1', 97),
  ('Cc1ccc(C(=O)N(CC(C)C)C[C@@H](O)[C@H](Cc2ccccc2)NC(=O)OCc2cncs2)cc1', 99),
  ('CC(C)CN(C[C@@H](O)[C@H](Cc1ccccc1)NC(=O)OCc1cncs1)C(=O)c1ccc[nH]1', 98),
  ('CC(C)CN(C[C@@H](O)[C@H](Cc1ccccc1)NC(=O)OCc1cncs1)C(=O)C1CCC(F)(F)CC1', 89),
  ('Cc1cccc(C(=O)N(CC(C)C)C[C@@H](O)[C@H](Cc2ccccc2)NC(=O)OCc2cncs2)c1', 96),
  ('COc1ccc(C(=O)N(CC(C)C)C[C@@H](O)[C@H](Cc2ccccc2)NC(=O)OCc2cncs2)cc1', 94);

----------
The entries below come with measured inhibition at 30 min, 10 μM values attached.
# Study Target: CYP3A4 (Homo sapiens, UniProt P08684)
# Construct: host or cells: E. coli
# Measurement Notes: CYP450 inhibition, fluorescent substrate assay, CYP3A4
# Type: biochemical
# Conditions: E. coli expressed CYP3A4, pH 7.4, probe BFC (150 μM), 10 μM test compound, substrate BFC 150 μM, 30 min, read-out: 3A4-BFC % inh.
Experimental Endpoint: inhibition at 30 min, 10 μM

INSERT INTO assay_data (compound, measured_result) VALUES
  ('COc1ccc(C(=O)N(CC(C)C)C[C@@H](O)[C@H](Cc2ccccc2)NC(=O)OCc2cncs2)cc1 [Compound C5]', '92%'),
  ('CC(C)CN(C[C@@H](O)[C@H](Cc1ccccc1)NC(=O)OCc1cccnc1)C(=O)c1ccncc1 [Compound C20]', '88%'),
  ('CC(C)CN(C[C@@H](O)[C@H](Cc1ccccc1)NC(=O)OCc1cncs1)C(=O)c1ccccn1 [Compound C9]', '91%');

----------
# Study Target: CYP3A4 (Homo sapiens, UniProt P08684)
# Construct: host or cells: E. coli
# Measurement Notes: CYP450 inhibition, fluorescent substrate assay, CYP3A4
# Type: biochemical
# Conditions: E. coli expressed CYP3A4, pH 7.4, probe BQ (60 μM), 10 μM test compound, substrate BQ 60 μM, 30 min, read-out: 3A4-BQ % inh.
Experimental Endpoint: inhibition at 30 min, 10 μM (%)

INSERT INTO measurements (molecule, measured_result) VALUES
  ('CC(C)CN(C[C@@H](O)[C@H](Cc1ccccc1)NC(=O)OCc1cncs1)C(=O)c1cccc(C(F)(F)F)c1 [Compound C11]', 78),
  ('CC(C)CN(C[C@@H](O)[C@H](Cc1ccccc1)NC(=O)OCc1cncs1)C(=O)c1ccc(Cl)cc1 [Compound C16]', 82),
  ('COc1ccc(C(=O)N(CC(C)C)C[C@@H](O)[C@H](Cc2ccccc2)NC(=O)OCc2cncs2)cc1 [Compound C5]', 82),
  ('CC(C)CN(C[C@@H](O)[C@H](Cc1ccccc1)NC(=O)OCc1cncs1)C(=O)c1cccc(Br)c1 [Compound C17]', 81),
  ('O=C(N[C@@H](Cc1ccccc1)[C@H](O)CN(CC1CCCCC1)C(=O)c1ccncc1)OCc1cncs1 [Compound C27]', 81),
  ('CC(C)CN(C[C@@H](O)[C@H](Cc1ccccc1)NC(=O)OCc1cncs1)C(=O)OCc1cncs1 [Compound C25]', 79),
  ('Cc1cccc(C(=O)N(CC(C)C)C[C@@H](O)[C@H](Cc2ccccc2)NC(=O)OCc2cncs2)c1 [Compound C10]', 79),
  ('CC(C)CN(C[C@@H](O)[C@H](Cc1ccccc1)NC(=O)OCc1cncs1)C(=O)c1ccncc1 [Compound C8]', 79),
  ('CC(C)CN(C[C@@H](O)[C@H](Cc1ccccc1)NC(=O)OCc1cncs1)C(=O)c1cccc(Cl)c1 [Compound C15]', 80),
  ('CC(C)CN(C[C@@H](O)[C@H](Cc1ccccc1)NC(=O)OCc1cncs1)C(=O)c1ccccn1 [Compound C9]', 78),
  ('CC(C)CN(C[C@@H](O)[C@H](Cc1ccccc1)NC(=O)OCc1cncs1)C(=O)CCc1cncs1 [Compound C24]', 82),
  ('COc1cccc(C(=O)N(CC(C)C)C[C@@H](O)[C@H](Cc2ccccc2)NC(=O)OCc2cncs2)c1 [Compound C7]', 80),
  ('CC(C)CN(C[C@@H](O)[C@H](Cc1ccccc1)NC(=O)OCc1cncs1)C(=O)c1ccc[nH]1 [Compound C14]', 80),
  ('CC(C)CN(C[C@@H](O)[C@H](Cc1ccccc1)NC(=O)OCc1cncs1)C(=O)c1cnc2ccccc2n1 [Compound C12]', 79);

Ref: patent US8664391B2
